Reference source: ChEMBL document CHEMBL4371071

Entries with their measured pKi, system Muscarinic acetylcholine receptor M5 (Homo sapiens, UniProt P08912):
Please treat pKi as minus the base-10 logarithm of the molar concentration.

The following compounds have reported results that may help.
Query block: Given the entry COc1ccc(CCCOC(=O)N(c2ccccc2)C2CN3CCC2CC3)cc1 (stereo not given) , what pKi was observed with Muscarinic acetylcholine receptor M5 (Homo sapiens, UniProt P08912)?
Result block: 6.19

Query block: Given the entry COc1ccc(CCN(C(=O)OC2CN3CCC2CC3)c2ccccc2)cc1OC (racemic) , what pKi was observed with Muscarinic acetylcholine receptor M5 (Homo sapiens, UniProt P08912)?
Result block: 7.19

Query block: Given the entry COc1ccc(CCOC(=O)N(c2ccccc2)C2CN3CCC2CC3)cc1 (stereo not given) , what pKi was observed with Muscarinic acetylcholine receptor M5 (Homo sapiens, UniProt P08912)?
Result block: 6.64

Query block: Given the entry O=C(OCCCc1ccc(Cl)c(Cl)c1)N(c1ccccc1)C1CN2CCC1CC2 (stereo not given) , what pKi was observed with Muscarinic acetylcholine receptor M5 (Homo sapiens, UniProt P08912)?
Result block: 6.89

Pending compound:
Query block: Given the entry COc1ccc(COC(=O)N(c2ccccc2)C2CN3CCC2CC3)cc1OC (stereo not given) , what pKi was observed with Muscarinic acetylcholine receptor M5 (Homo sapiens, UniProt P08912)?
Result block: 6.26

---

A collection of compounds and their measured Imax
# Target: UniProt:P20309
# Settings: CHO, at 100 µM
# Sequence (P20309 whole entry, looked up): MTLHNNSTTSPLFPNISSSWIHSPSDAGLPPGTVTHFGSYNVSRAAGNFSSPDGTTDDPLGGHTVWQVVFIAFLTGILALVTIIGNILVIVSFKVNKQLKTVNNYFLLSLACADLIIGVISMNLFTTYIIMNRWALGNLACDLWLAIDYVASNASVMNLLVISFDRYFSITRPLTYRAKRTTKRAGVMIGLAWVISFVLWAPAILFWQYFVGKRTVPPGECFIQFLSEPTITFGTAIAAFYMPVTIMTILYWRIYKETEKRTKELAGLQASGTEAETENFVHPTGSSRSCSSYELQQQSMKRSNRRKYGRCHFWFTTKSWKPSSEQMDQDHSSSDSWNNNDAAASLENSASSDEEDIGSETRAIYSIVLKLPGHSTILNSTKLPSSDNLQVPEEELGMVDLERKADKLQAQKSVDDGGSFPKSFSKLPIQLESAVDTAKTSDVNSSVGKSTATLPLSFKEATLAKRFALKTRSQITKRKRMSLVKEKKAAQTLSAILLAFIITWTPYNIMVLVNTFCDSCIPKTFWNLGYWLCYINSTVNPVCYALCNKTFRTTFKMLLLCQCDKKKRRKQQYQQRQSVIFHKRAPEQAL
Record the value in %, omitting the unit from your answer.

Query block: May I ask what Imax has been recorded for O=C(OCCCc1ccc(Cl)c(Cl)c1)N(c1ccccc1)C1CN2CCC1CC2 (stereo not drawn) ?
Result block: 100

Query block: May I ask what Imax has been recorded for CN1CCCC(OC(=O)N(CCc2ccc(F)cc2)c2ccccc2)C1 (stereo not drawn) ?
Result block: 99

Next:
Query block: May I ask what Imax has been recorded for O=C(OCCc1ccccc1)N(c1ccccc1)C1CN2CCC1CC2 (stereo not drawn) ?
Result block: 99.1

Query block: May I ask what Imax has been recorded for Cc1ccc(COC(=O)N(c2ccccc2)C2CN3CCC2CC3)cc1F (stereo not drawn) ?
Result block: 99

Query block: May I ask what Imax has been recorded for COc1ccc(CCCOC(=O)N(c2ccccc2)C2CN3CCC2CC3)cc1F (stereo not drawn) ?
Result block: 99.8

Query block: May I ask what Imax has been recorded for COc1ccc(CCOC(=O)N(c2ccccc2)C2CN3CCC2CC3)cc1OC (stereo not drawn) ?
Result block: 85.9

Query block: May I ask what Imax has been recorded for O=C(OCc1ccccc1)N(c1ccccc1)C1CN2CCC1CC2 (stereo not drawn) ?
Result block: 98.6

Query block: May I ask what Imax has been recorded for COc1ccc(COC(=O)N(c2ccccc2)C2CN3CCC2CC3)cc1OC (stereo not drawn) ?
Result block: 95.4

---

# Target: UniProt P11229
# Settings: CHO, at 100 µM
A collection of compounds and their measured Imax

The following compounds have reported results that may help.
Query block: May I ask what Imax has been recorded for COc1ccc(CCOC(=O)N(c2ccccc2)C2CN3CCC2CC3)cc1 (stereo not given) ?
Result block: 98.4%

Query block: May I ask what Imax has been recorded for CN1CCC(OC(=O)N(CCc2ccc(F)cc2)c2ccccc2)CC1 ?
Result block: 100%

Query block: May I ask what Imax has been recorded for COc1ccc(CCN(C(=O)OC2CCCN(C)C2)c2ccccc2)cc1 (stereo not given) ?
Result block: 98.6%

Next:
Query block: May I ask what Imax has been recorded for COc1ccc(CCN(C(=O)OC2CN3CCC2CC3)c2ccccc2)cc1 (racemic) ?
Result block: 100%

Query block: May I ask what Imax has been recorded for COc1ccc(CCOC(=O)N(c2ccccc2)C2CN3CCC2CC3)cc1OC (stereo not given) ?
Result block: 90.6%

Query block: May I ask what Imax has been recorded for COc1ccc(CCN(C(=O)OC2CCCN(C)C2)c2ccccc2)cc1OC (stereo not given) ?
Result block: 94.3%

Query block: May I ask what Imax has been recorded for O=C(OCc1ccc(Cl)c(Cl)c1)N(c1ccccc1)C1CN2CCC1CC2 (stereo not given) ?
Result block: 100%

Query block: May I ask what Imax has been recorded for COc1ccc(CCN(C(=O)OC2C[C@H]3CC[C@H](C2)N3C)c2ccccc2)cc1OC (stereo not given in full) ?
Result block: 95.3%

Query block: May I ask what Imax has been recorded for O=C(OC1CN2CCC1CC2)N(CCc1ccc(F)cc1)c1ccccc1 (racemic) ?
Result block: 99.9%

Query block: May I ask what Imax has been recorded for COc1ccc(CCN(C(=O)OC2C[C@H]3CC[C@H](C2)N3C)c2ccccc2)cc1 (stereo not given in full) ?
Result block: 99.7%

Query block: May I ask what Imax has been recorded for COc1ccc(CCN(C(=O)OC2CCN(C)CC2)c2ccccc2)cc1OC ?
Result block: 99%

Query block: May I ask what Imax has been recorded for O=C(OCCc1ccc(Cl)c(Cl)c1)N(c1ccccc1)C1CN2CCC1CC2 (stereo not given) ?
Result block: 99.9%

Query block: May I ask what Imax has been recorded for O=C(OCc1ccc2c(c1)OCO2)N(c1ccccc1)C1CN2CCC1CC2 (stereo not given) ?
Result block: 100%

Query block: May I ask what Imax has been recorded for O=C(OCCCc1ccccc1)N(c1ccccc1)C1CN2CCC1CC2 (stereo not given) ?
Result block: 99.1%

Query block: May I ask what Imax has been recorded for COc1ccc(CCCOC(=O)N(c2ccccc2)C2CN3CCC2CC3)cc1F (stereo not given) ?
Result block: 100%

Query block: May I ask what Imax has been recorded for O=C(OCCc1ccccc1)N(c1ccccc1)C1CN2CCC1CC2 (stereo not given) ?
Result block: 88.5%

Query block: May I ask what Imax has been recorded for Cc1ccc(CCCOC(=O)N(c2ccccc2)C2CN3CCC2CC3)cc1F (stereo not given) ?
Result block: 100%

Query block: May I ask what Imax has been recorded for O=C(OCCc1ccc2c(c1)OCO2)N(c1ccccc1)C1CN2CCC1CC2 (stereo not given) ?
Result block: 99.6%

Query block: May I ask what Imax has been recorded for Cc1ccc(COC(=O)N(c2ccccc2)C2CN3CCC2CC3)cc1F (stereo not given) ?
Result block: 100%

---

Entries with their measured pKi, system Muscarinic acetylcholine receptor M1 (Homo sapiens):
Please treat pKi as minus the base-10 logarithm of the molar concentration.

Query block: Given the entry O=C(OCCc1ccc2c(c1)OCO2)N(c1ccccc1)C1CN2CCC1CC2 (stereo not given) , what pKi was observed with Muscarinic acetylcholine receptor M1 (Homo sapiens)?
Result block: 6.20

Query block: Given the entry COc1ccc(CCN(C(=O)OC2C[C@H]3CC[C@H](C2)N3C)c2ccccc2)cc1 (stereo not given in full) , what pKi was observed with Muscarinic acetylcholine receptor M1 (Homo sapiens)?
Result block: 6.46

Query block: Given the entry COc1ccc(COC(=O)N(c2ccccc2)C2CN3CCC2CC3)cc1 (stereo not given) , what pKi was observed with Muscarinic acetylcholine receptor M1 (Homo sapiens)?
Result block: 6.15

Query block: Given the entry O=C(OCCc1ccccc1)N(c1ccccc1)C1CN2CCC1CC2 (stereo not given) , what pKi was observed with Muscarinic acetylcholine receptor M1 (Homo sapiens)?
Result block: 6.10

Query block: Given the entry COc1ccc(CCN(C(=O)OC2CN3CCC2CC3)c2ccccc2)cc1 (racemic) , what pKi was observed with Muscarinic acetylcholine receptor M1 (Homo sapiens)?
Result block: 8.00

---

A collection of compounds and their measured Ki
# Target: Muscarinic acetylcholine receptor M3 (Homo sapiens, UniProt P20309)
Record the value in nM, omitting the unit from your answer.

The following compounds have reported results that may help.
Query block: Given the entry COc1ccc(CCN(C(=O)OC2C[C@H]3CC[C@H](C2)N3C)c2ccccc2)cc1OC (some centres not stated) , what Ki was observed with Muscarinic acetylcholine receptor M3 (Homo sapiens, UniProt P20309)?
Result block: 2800

Query block: Given the entry O=C(OCCCc1ccc(F)c(F)c1)N(c1ccccc1)C1CN2CCC1CC2 (configuration not stated) , what Ki was observed with Muscarinic acetylcholine receptor M3 (Homo sapiens, UniProt P20309)?
Result block: 220

Query block: Given the entry O=C(OC1CN2CCC1CC2)N(CCc1ccc(F)cc1)c1ccccc1 (racemic) , what Ki was observed with Muscarinic acetylcholine receptor M3 (Homo sapiens, UniProt P20309)?
Result block: 2.6

Query block: Given the entry O=C(OCCCc1ccc(Cl)c(Cl)c1)N(c1ccccc1)C1CN2CCC1CC2 (configuration not stated) , what Ki was observed with Muscarinic acetylcholine receptor M3 (Homo sapiens, UniProt P20309)?
Result block: 60

Query block: Given the entry COc1ccc(COC(=O)N(c2ccccc2)C2CN3CCC2CC3)cc1F (configuration not stated) , what Ki was observed with Muscarinic acetylcholine receptor M3 (Homo sapiens, UniProt P20309)?
Result block: 50

Next:
Query block: Given the entry COc1ccc(CCOC(=O)N(c2ccccc2)C2CN3CCC2CC3)cc1 (configuration not stated) , what Ki was observed with Muscarinic acetylcholine receptor M3 (Homo sapiens, UniProt P20309)?
Result block: 420

Query block: Given the entry COc1ccc(CCN(C(=O)OC2CCN(C)CC2)c2ccccc2)cc1OC , what Ki was observed with Muscarinic acetylcholine receptor M3 (Homo sapiens, UniProt P20309)?
Result block: 1280

Query block: Given the entry Cc1ccc(COC(=O)N(c2ccccc2)C2CN3CCC2CC3)cc1F (configuration not stated) , what Ki was observed with Muscarinic acetylcholine receptor M3 (Homo sapiens, UniProt P20309)?
Result block: 20

Query block: Given the entry COc1ccc(COC(=O)N(c2ccccc2)C2CN3CCC2CC3)cc1OC (configuration not stated) , what Ki was observed with Muscarinic acetylcholine receptor M3 (Homo sapiens, UniProt P20309)?
Result block: 1020

Query block: Given the entry O=C(OCCc1ccccc1)N(c1ccccc1)C1CN2CCC1CC2 (configuration not stated) , what Ki was observed with Muscarinic acetylcholine receptor M3 (Homo sapiens, UniProt P20309)?
Result block: 300
